Sourced from ChEMBL document CHEMBL3885861

# Species: Rattus norvegicus
# assay_details: Open TG-GATES - Regimen: Daily Repeat
# Assay type: toxicity, organism-based, Sprague-Dawley
# Set-up: regimen Daily Repeat, gender Male, age 6 weeks
# condition_set: in vivo, po, 300 mg/kg, […], tissue Plasma, route gavage, dose level Middle, time 28 day
LDH: recorded values
Provide the reading as a plain figure in IU/L.

In the examples that follow, each entry is paired with its recorded LDH.
molecule	quantity_unit	value_observed
CC(S)C(=O)NCC(=O)O (centres undefined)	IU/L	154.2
CCCCNC(=O)NS(=O)(=O)c1ccc(C)cc1 [TOLBUTAMIDE]	IU/L	55
O=C(O)c1ccccc1Nc1ccccc1	IU/L	107.6

Q: # query: LDH of entry `CC(=O)[C@@]1(O)CC[C@H]2[C@@H]3C=C(Cl)C4=CC(=O)CC[C@]4(C)[C@H]3CC[C@@]21C`
Result: 156.2

----------
# Species: Rattus norvegicus
# assay_details: Open TG-GATES - Regimen: Daily Repeat
# Format: toxicity, organism-based, Sprague-Dawley
# Design: regimen Daily Repeat, gender Male, age 6 weeks
# condition_set: in vivo, po, 1000 mg/kg, […], tissue Blood, route gavage, dose level High, time 28 day
quantity_name: MCHC (%)
Provide the reading as a plain figure in %.

In the examples that follow, each entry is paired with its recorded MCHC.
compound	value_observed
O=C(O)c1ccccc1Nc1ccccc1	34
CCCCNC(=O)NS(=O)(=O)c1ccc(C)cc1 [TOLBUTAMIDE]	33.5
CC(=O)[C@@]1(O)CC[C@H]2[C@@H]3C=C(Cl)C4=CC(=O)CC[C@]4(C)[C@H]3CC[C@@]21C	34.9

Okay, next one:
Q: # query: MCHC of entry CC(S)C(=O)NCC(=O)O (centres undefined)
Result: 35.3

----------
Mono: recorded values
# Species on record: Rattus norvegicus
# assay_details: Open TG-GATES - Regimen: Daily Repeat
# Assay type: toxicity, organism-based, Sprague-Dawley
# Parameters: regimen Daily Repeat, gender Male, age 6 weeks
# condition_set: in vivo, po, 100 mg/kg, 72 h, tissue Blood, route gavage, dose level Low, time 3 day
Provide the reading as a plain figure in %.

In the examples that follow, each entry is paired with its recorded Mono.
molecule	quantity_unit	Mono
CC(=O)[C@@]1(O)CC[C@H]2[C@@H]3C=C(Cl)C4=CC(=O)CC[C@]4(C)[C@H]3CC[C@@]21C	%	2.4
CC(S)C(=O)NCC(=O)O (centres undefined)	%	2.8
CCCCNC(=O)NS(=O)(=O)c1ccc(C)cc1 [TOLBUTAMIDE]	%	2.2

Q: # query: Mono of entry `O=C(O)c1ccccc1Nc1ccccc1`
Result: 2

----------
# Organism: Rattus norvegicus
# assay_details: Open TG-GATES - Regimen: Daily Repeat
# Type: toxicity, organism-based, Sprague-Dawley
# Design: regimen Daily Repeat, gender Male, age 6 weeks
# condition_set: in vivo, po, 1000 mg/kg, 72 h, tissue Kidney, route gavage, dose level High, time 3 day
KIDNEY_L: recorded values
Provide the reading as a plain figure in g.

In the examples that follow, each entry is paired with its recorded KIDNEY_L.
compound	KIDNEY_L, g
O=C(O)c1ccccc1Nc1ccccc1	1.1
CC(S)C(=O)NCC(=O)O (centres undefined)	1
CC(=O)[C@@]1(O)CC[C@H]2[C@@H]3C=C(Cl)C4=CC(=O)CC[C@]4(C)[C@H]3CC[C@@]21C	1

Okay, next one:
Q: # query: KIDNEY_L of entry CCCCNC(=O)NS(=O)(=O)c1ccc(C)cc1 [TOLBUTAMIDE]
Result: 1

----------
TC: recorded values
# Organism: Rattus norvegicus
# assay_details: Open TG-GATES - Regimen: Daily Repeat
# Format: toxicity, organism-based, Sprague-Dawley
# Parameters: regimen Daily Repeat, gender Male, age 6 weeks
# condition_set: in vivo, po, 100 mg/kg, […], tissue Plasma, route gavage, dose level Low, time 28 day
State the result as a value with its unit after it.

Q: # query: TC of entry CC(S)C(=O)NCC(=O)O (centres undefined)
Result: 77.4 mg/dL

Q: # query: TC of entry `CC(=O)[C@@]1(O)CC[C@H]2[C@@H]3C=C(Cl)C4=CC(=O)CC[C@]4(C)[C@H]3CC[C@@]21C`
Result: 73.2 mg/dL

Q: # query: TC of entry `O=C(O)c1ccccc1Nc1ccccc1`
Result: 76.6 mg/dL

Q: # query: TC of entry CCCCNC(=O)NS(=O)(=O)c1ccc(C)cc1 [TOLBUTAMIDE]
Result: 68.8 mg/dL

----------
Bas: recorded values
# Organism: Rattus norvegicus
# assay_details: Open TG-GATES - Regimen: Daily Repeat
# Assay type: toxicity, organism-based, Sprague-Dawley
# Set-up: regimen Daily Repeat, gender Male, age 6 weeks
# condition_set: in vivo, po, 1000 mg/kg, 72 h, tissue Blood, route gavage, dose level High, time 3 day
Provide the reading as a plain figure in %.

In the examples that follow, each entry is paired with its recorded Bas.
compound	Bas / %
O=C(O)c1ccccc1Nc1ccccc1	0.3
CCCCNC(=O)NS(=O)(=O)c1ccc(C)cc1 [TOLBUTAMIDE]	0
CC(=O)[C@@]1(O)CC[C@H]2[C@@H]3C=C(Cl)C4=CC(=O)CC[C@]4(C)[C@H]3CC[C@@]21C	0

Okay, next one:
Q: # query: Bas of entry CC(S)C(=O)NCC(=O)O (centres undefined)
Result: 0

----------
Mono: recorded values
# Organism: Rattus norvegicus
# assay_details: Open TG-GATES - Regimen: Daily Repeat
# Type: toxicity, organism-based, Sprague-Dawley
# Design: regimen Daily Repeat, gender Male, age 6 weeks
# condition_set: in vivo, po, 300 mg/kg, 72 h, tissue Blood, route gavage, dose level Middle, time 3 day

In the examples that follow, each entry is paired with its recorded Mono.
molecule	value_observed
CCCCNC(=O)NS(=O)(=O)c1ccc(C)cc1 [TOLBUTAMIDE]	2.6%
O=C(O)c1ccccc1Nc1ccccc1 [FENAMIC ACID]	2.8%
CC(S)C(=O)NCC(=O)O (centres undefined) [TIOPRONIN]	2.4%

Okay, next one:
Q: # query: Mono of entry CC(=O)[C@@]1(O)CC[C@H]2[C@@H]3C=C(Cl)C4=CC(=O)CC[C@]4(C)[C@H]3CC[C@@]21C [CHLORMADINONE]
Result: 3.4%

----------
# Species: Rattus norvegicus
# assay_details: Open TG-GATES - Regimen: Daily Repeat
# Assay type: toxicity, organism-based, Sprague-Dawley
# Design: regimen Daily Repeat, gender Male, age 6 weeks
# condition_set: in vivo, po, 300 mg/kg, […], tissue Plasma, route gavage, dose level Middle, time 28 day
BUN: recorded values
Provide the reading as a plain figure in mg/dL.

In the examples that follow, each entry is paired with its recorded BUN.
molecule	BUN (mg/dL)
CC(=O)[C@@]1(O)CC[C@H]2[C@@H]3C=C(Cl)C4=CC(=O)CC[C@]4(C)[C@H]3CC[C@@]21C	19.4
CC(S)C(=O)NCC(=O)O (centres undefined)	18.6
CCCCNC(=O)NS(=O)(=O)c1ccc(C)cc1 [TOLBUTAMIDE]	16

Okay, next one:
Q: # query: BUN of entry `O=C(O)c1ccccc1Nc1ccccc1`
Result: 15.6

----------
# Species on record: Rattus norvegicus
# assay_details: Open TG-GATES - Regimen: Daily Repeat
# Assay type: toxicity, organism-based, Sprague-Dawley
# Parameters: regimen Daily Repeat, gender Male, age 6 weeks
# condition_set: in vivo, po, 0 mg/kg, 72 h, tissue Blood, route gavage, dose level Control, time 3 day
RBC: recorded values
Provide the reading as a plain figure in x10_4/ul.

In the examples that follow, each entry is paired with its recorded RBC.
Nc1ccc(Cc2ccc(N)cc2)cc1 618.2
O=C(O)c1ccccc1Nc1ccccc1 664.6

Okay, next one:
Q: # query: RBC of entry `CCCCC1C(=O)N(c2ccccc2)N(c2ccccc2)C1=O`
Result: 672.8

----------
# Species: Rattus norvegicus
# assay_details: Open TG-GATES - Regimen: Daily Repeat
# Format: toxicity, organism-based, Sprague-Dawley
# Set-up: regimen Daily Repeat, gender Male, age 6 weeks
# condition_set: in vivo, po, 100 mg/kg, 72 h, tissue Plasma, route gavage, dose level Low, time 3 day
quantity_name: Cl

In the examples that follow, each entry is paired with its recorded Cl.
molecule	quantity_name	value_observed
CC(=O)[C@@]1(O)CC[C@H]2[C@@H]3C=C(Cl)C4=CC(=O)CC[C@]4(C)[C@H]3CC[C@@]21C	Cl	106.2 meq/L
CCCCNC(=O)NS(=O)(=O)c1ccc(C)cc1 [TOLBUTAMIDE]	Cl	104.6 meq/L
CC(S)C(=O)NCC(=O)O (centres undefined)	Cl	106.4 meq/L

Q: # query: Cl of entry `O=C(O)c1ccccc1Nc1ccccc1`
Result: 106.2 meq/L

----------
# Species: Rattus norvegicus
# assay_details: Open TG-GATES - Regimen: Daily Repeat
# Assay type: toxicity, organism-based, Sprague-Dawley
# Design: regimen Daily Repeat, gender Male, age 6 weeks
# condition_set: in vivo, po, 100 mg/kg, […], tissue Plasma, route gavage, dose level Low, time 28 day
PL: recorded values
Provide the reading as a plain figure in mg/dL.

In the examples that follow, each entry is paired with its recorded PL.
molecule	quantity_unit	value_observed
CC(=O)[C@@]1(O)CC[C@H]2[C@@H]3C=C(Cl)C4=CC(=O)CC[C@]4(C)[C@H]3CC[C@@]21C [CHLORMADINONE]	mg/dL	155.4
O=C(O)c1ccccc1Nc1ccccc1 [FENAMIC ACID]	mg/dL	154.2
CCCCNC(=O)NS(=O)(=O)c1ccc(C)cc1 [TOLBUTAMIDE]	mg/dL	151.2

Q: # query: PL of entry CC(S)C(=O)NCC(=O)O (centres undefined) [TIOPRONIN]
Result: 142.4
